What IL-1β Average was measured for each of the following?
Tested on: IL-1β mRNA level in HEK-293T cells
Settings: human

Q: Requested field: IL-1β Average. Item: CCCCCCCCCCCOC(=O)CCCCCN(CCCCCCCC(=O)OC(CCCCCCCC)CCCCCCCC)CC(O)CCCCNC(=O)c1c[nH]c(O)n1 (stereo not shown)
Ans: 0.91

Q: Fill in the blank: the reported IL-1β Average of CCCCCCCCCCCOC(=O)CCCCCN(CCCCCCCC(=O)OC(CCCCCCCC)CCCCCCCC)CC(O)CCCCNC(=O)c1cc[nH]c1 (stereo not shown) is ____.
Ans: 0.70

Q: Data request, read-out IL-1β Average, for CCCCCCCCCCCOC(=O)CCCCCN(CCCCCCCC(=O)OC(CCCCCCCC)CCCCCCCC)CC(O)CCCCNC(=O)c1nccn1C (stereo not shown)
Ans: 0.96

Q: Look up IL-1β Average: CCCCCCCCCCCOC(=O)CCCCCN(CCCCCCCC(=O)OC(CCCCCCCC)CCCCCCCC)CC(O)CCCCNC(=O)c1c(O)ccn1C (stereo not shown)
Ans: 0.99
